This collection of values is drawn from patent US10501428B2.

Tested on: Human lung cancer cells A549
Assay: CellTiter-Glo cell viability assay, A549 lung cancer cells
Assay type: cell-based
Conditions: Homo sapiens; A549, 100 μM, 48 hours exposure, relative to control (DMSO); read-out: decrease in cell viability
cytotoxicity at 100 µM values, listed per item
Entry rule: numbers only, all in %.

For orientation, consider the following solved cases.
CC1=C(N)C(=O)C(C(C)C)=CC1=O 100
CC1=C(NCc2ccccc2)C(=O)C(C(C)C)=CC1=O 58
CC1=C(NCc2cc(C(F)(F)F)cc(C(F)(F)F)c2)C(=O)C(C(C)C)=CC1=O 48
CC1=C(NCc2ccc(F)cc2)C(=O)C(C(C)C)=CC1=O 64
CC1=C(NCCN2CCOCC2)C(=O)C(C(C)C)=CC1=O 33

Kindly review the next compound as well.
# input Item under review: CC1=C(NCc2ccc(C(F)(F)F)cc2)C(=O)C(C(C)C)=CC1=O . Reported cytotoxicity at 100 µM?
# output 57

###

Entries and their melting point

Some compounds with known melting point results, for comparison:
compound	melting point
CC1=C(NCc2ccccc2)C(=O)C(C(C)C)=CC1=O [TQ4]	83 to 84.5 °C
CC1=C(NCc2ccc(C(F)(F)F)cc2)C(=O)C(C(C)C)=CC1=O [TQ2]	110.5 to 112 °C
CC1=C(NCCN2CCOCC2)C(=O)C(C(C)C)=CC1=O [TQ1]	92 to 95 °C
CC1=C(NCc2cc(C(F)(F)F)cc(C(F)(F)F)c2)C(=O)C(C(C)C)=CC1=O [TQ5]	111 to 114 °C
CC1=C(N)C(=O)C(C(C)C)=CC1=O [TQ8]	68 to 72 °C

Shifting focus to the compound that follows.
# input What value of measured melting point is listed for CC1=C(NCc2ccc(F)cc2)C(=O)C(C(C)C)=CC1=O [TQ3] ?
# output 80 to 82.5 °C

###

Test system: G-quadruplex DNA
Assay: Fluorescence titration of TQs with G-quadruplex DNA (modified Scatchard)
Assay type: binding, human
Details: non-linear regression, modified Scatchard equation
Experimental: A 2 ml of the stock single stranded DNA; 5′-[…]-3′ (SEQ ID NO: 1) was gently heated up to 95° C., incubated for 10 minutes and then left to cool to room temperature. Resultant solution was kept in fridge at 4° C. overnight. To 3 ml of 5×10^−5 M of each of compounds TQ1-8 in Tris-KCl-buffer, pH 7.4, successive portions of G-quadruplex DNA (1.44×10^−4 M) were added. […] Titration stopped when no change in fluorescence intensity was observed. […]
recorded-endpoint: binding constant K (M⁻¹)
# output: bare number, implied unit M⁻¹

Worked cases, answers included:
molecule	binding constant K (M⁻¹)
CC1=C(NCc2ccc(F)cc2)C(=O)C(C(C)C)=CC1=O [TQ3]	330000
CC1=C(NCc2ccc(C(F)(F)F)cc2)C(=O)C(C(C)C)=CC1=O [TQ2]	567000
CC1=C(NCCO)C(=O)C(C(C)C)=CC1=O [TQ6]	1.49e+06
COc1ccc(CNC2=C(C)C(=O)C=C(C(C)C)C2=O)cc1OC [TQ7]	1.17e+06
CC1=C(NCCN2CCOCC2)C(=O)C(C(C)C)=CC1=O [TQ1]	113000
CC1=C(NCc2ccccc2)C(=O)C(C(C)C)=CC1=O [TQ4]	95200

# input Notebook entry, G-quadruplex DNA assay: binding constant K of CC1=C(NCc2cc(C(F)(F)F)cc(C(F)(F)F)c2)C(=O)C(C(C)C)=CC1=O [TQ5] = ?
# output 77600
